All values here come from patent US20230091047A1.

- Tested on: HBV (HepG2.117 cell line, inducibly HBV producing)
- experiment: Anti-HBV activity: intracellular HBV DNA by real-time PCR in HepG2.117 cells after 3 days of treatment
- Type: cell-based, hepatitis B virus
- testContext: Hepatitis B virus, HepG2.117, 72 h, HepG2.117 cells, 3 days of treatment, intracellular HBV DNA by real-time PCR; mean value; read-out: EC50 (μM, mean value)
Strictly below 0.6 µM in EC50: 1 (yes). Otherwise: 0 (no).

| compound | classification |
| --- | --- |
| CC(C)Nc1nc2c(c(=O)n1-c1ccc(-c3cncs3)cc1)CCN(C(=O)c1ccc(Cl)c(Cl)c1)C2 | 1 (yes) |
| CNC(=O)c1ccc(-n2c(N3CC[C@@H]3c3ccccc3)nc3c(c2=O)C[C@@H](C)N(C(=O)c2ccc(Cl)c(Cl)c2)C3)cc1 (single isomer, unassigned) | 1 (yes) |
| CNC(=O)c1ccc(-n2c(N[C@@H](C)CO)nc3c(c2=O)C[C@@H](C)N(C(=O)c2ccc(Cl)c(Cl)c2)C3)cc1 | 0 (no) |
| CNS(=O)(=O)c1ccc(-n2c(NC(C)C)nc3c(c2=O)C[C@@H](C)N(C(=O)c2ccc(Cl)c(Cl)c2)C3)cc1 | 1 (yes) |
| CNC(=O)c1cnc(-n2c(NC(C)C)nc3c(c2=O)C[C@@H](C)N(C(=O)c2ccc(Cl)c(Cl)c2)C3)cn1 | 1 (yes) |
| CNC(=O)c1ccc(-n2c(NC(C)C)nc3c(c2=O)C[C@@H](C)N(C(=O)c2ccc(Cl)c(Cl)c2)C3)cc1 | 1 (yes) |

---

- experiment: in vitro
- Assay type: cell-based
- testContext: human, HepG2 or HepG2.117 cells, ATPlite, 3-days incubation (not marked with *), mean value
# key: entry, value: CC50 at 3 days

| molecule | CC50 at 3 days |
| --- | --- |
| CNC(=O)c1ccc(-n2c(NC[C@@H](C)c3cccc(OC)c3)nc3c(c2=O)C[C@@H](C)N(C(=O)c2ccc(Cl)c(Cl)c2)C3)cc1 (single isomer, unassigned) [Compound C436b] | 22.3 µM |
| CNC(=O)c1ccc(-n2c(N[C@@H](C)c3ccc(C#N)cc3)nc3c(c2=O)C[C@@H](C)N(C(=O)c2ccc(Cl)c(Cl)c2)C3)cc1 (single isomer, unassigned) [Compound C441b] | > 50 µM |
| CNC(=O)c1ccc(-n2c(N[C@H]3CCOc4cc(OC)ccc43)nc3c(c2=O)C[C@@H](C)N(C(=O)c2ccc(Cl)c(Cl)c2)C3)cc1 (single isomer, unassigned) [Compound C527b] | > 50 µM |
| CNC(=O)c1ccc(-n2c(NC(C)C)nc3c(c2=O)C[C@@H](C)N(C(=O)c2ccc(Cl)c(C(F)(F)F)c2)C3)c(C(F)F)c1 (single isomer, unassigned) [Compound C669a] | 29.8 µM |
| CNC(=O)c1ccc(-n2c(NC(C)C)nc3c(c2=O)C[C@@H](C)N(C(=O)c2cc(Cl)c(Br)cc2OC)C3)cc1 | > 50 µM |
| CNC(=O)c1ccc(-n2c(N[C@@H](C)c3ccc(C)cc3)nc3c(c2=O)C[C@@H](C)N(C(=O)c2ccc(Cl)c(Cl)c2)C3)cc1 | 20.6 µM |
| CNC(=O)c1ccc(-n2c(N[C@H](C)c3nccs3)nc3c(c2=O)C[C@@H](C)N(C(=O)c2ccc(Cl)c(Cl)c2)C3)cc1 (single isomer, unassigned) [Compound C434a] | > 50 µM |
| CNC(=O)c1ccc(-n2c(NC(C)C)nc3c(c2=O)C[C@@H](C)N(C(=O)c2ccc(Cl)c(C(F)(F)F)c2)C3)nn1 | > 50 µM |
| CNC(=O)c1cc(Cl)c(-n2c(NC(C)C)nc3c(c2=O)C[C@@H](C)N(C(=O)c2ccc(Cl)c(C(F)(F)F)c2)C3)c(Cl)c1 | 29.3 µM |
| CNC(=O)c1ccc(-n2c(N[C@H](C)c3ccc4c(ccn4C)c3)nc3c(c2=O)C[C@@H](C)N(C(=O)c2ccc(Cl)c(Cl)c2)C3)cc1 (single isomer, unassigned) [Compound C450a] | > 50 µM |
| CC(=O)Nc1ccc(-n2c(N[C@@H](C)c3ccc4[nH]ncc4c3)nc3c(c2=O)C[C@@H](C)N(C(=O)c2ccc(Cl)c(Cl)c2)C3)cc1 (single isomer, unassigned) [Compound C462b] | > 50 µM |
